Test system: Plasmodium falciparum
MEASUREMENT NOTES: Calibr Malaria Delayed Death Assay SOP
Format: functional, organism-based
Design: scale not given: in the data most compounds retested in dose-response had high values
SETTINGS: concentration 4.99e-06 (unit not given; other assays of the set use mol/L)
In all, about 38,000 compounds went through this assay and about 1,200 (3.2%) showed an effect of 50% or more. The median lay at about -58%. What follows is part of a selection rich in strong results, with near analogues and random picks from the rest.
VALUE TYPE: Percent Effect (%)
Numbers only here, please. The scale is %.

# COMPOUND, TEST VALUE
measured = [
    ("COc1ccc(C(C(=O)O)N(C)CCN2CCOCC2)c(C)c1 (centres undefined)", -92.34),
    ("COc1c(C)cnc(CN2CCC(N(C)C(C)C(N)=O)CC2)c1C (centres undefined)", 77.51),
    ("COc1cc(F)ccc1C(C(=O)O)N(C)CCN1CCCC1 (centres undefined)", 71.25),
    ("COc1c(C)cnc(CN2CCn3c(nnc3C3CC3)C2)c1C", -38.06),
]

We now examine a further compound.
Give its Percent Effect value. Item: COc1c(C)cnc(CN(C)C(=O)c2ccccc2O)c1C
-65.02

----------
Tested on: Plasmodium falciparum
MEASUREMENT NOTES: Calibr Malaria Delayed Death Assay SOP
Assay type: functional, organism-based
Parameters: scale not given: in the data most compounds retested in dose-response had high values
SETTINGS: concentration 4.99e-06 (unit not given; other assays of the set use mol/L)
About 1,200 (3.2%) of roughly 38,000 compounds showed an effect of 50% or more. The median lay at about -58%. Many of the other results were omitted from the sample, so strong results are more common in it than they were.
Lab note - cut at -70% for Percent Effect: Yes if strictly below, No if not.

Field: example entries. Status: answers known.
# COMPOUND, CLASSIFICATION
measured = [
    ("CC1CCC(NS(=O)(=O)CC(=O)NCC2CCC2)CC1 (stereo unspecified)", "Yes"),
    ("CC(C)[C@H](NC(=O)NC1CCS(=O)(=O)C1)C(=O)NCc1ccccc1 (stereo partly specified)", "Yes"),
    ("Cl.Cl.NCC1[C@H]2CN(CCc3ccccc3)C[C@@H]12 (stereo partly specified)", "No"),
]

Could you please tell me whether Percent Effect recorded for CC(NCc1ccc(OCC(N)=O)cc1)c1ccc(Cl)cc1.Cl (stereo unspecified) is less than -70%?
No

Could you please tell me whether Percent Effect recorded for CCC(NC(=O)CC(F)(F)F)c1ccccc1OCC(=O)N1CCCC1 (stereo unspecified) is less than -70%?
No

Could you please tell me whether Percent Effect recorded for CCOc1ccc(Cl)cc1C(C(=O)O)N1CCCC1 (stereo unspecified) is less than -70%?
No

Could you please tell me whether Percent Effect recorded for CN1CCC(C(=O)N2CCN(Cc3cccc(Cl)c3)CC2)CC1=O (stereo unspecified) is less than -70%?
Yes

Could you please tell me whether Percent Effect recorded for CSc1ccc(CN(CCO)C(=O)CCc2ccc(O)cc2)cc1 is less than -70%?
Yes

Could you please tell me whether Percent Effect recorded for COc1ccc(CCC2CCCCN2)cc1OC (stereo unspecified) is less than -70%?
Yes

Could you please tell me whether Percent Effect recorded for O=C(O)C(F)(F)F.O=C(O)C(F)(F)F.c1cc(CN2CCCC3(COCCN(Cc4c[nH]nn4)C3)C2)cs1 (stereo unspecified) is less than -70%?
No

Could you please tell me whether Percent Effect recorded for CN(C)C(=O)N1CCC2(CCCN(c3ncccn3)C2)C1.O=C(O)C(F)(F)F (stereo unspecified) is less than -70%?
Yes

Could you please tell me whether Percent Effect recorded for Cc1ccc(S(=O)(=O)Nc2ccc(C)c(C(=O)O)c2)s1 is less than -70%?
Yes

Could you please tell me whether Percent Effect recorded for CSc1ccc(-c2nc(CN3CCC(C(N)=O)CC3)c(C)o2)cc1 is less than -70%?
Yes

Could you please tell me whether Percent Effect recorded for Cc1csc(NC(=O)[C@@H]2C[C@H]3[C@H](CCN3S(C)(=O)=O)O2)n1 is less than -70%?
Yes
